Protease (Human immunodeficiency virus 1, UniProt Q9YQ12): reported pIC50 for various compounds.
Sequence (Q9YQ12 whole entry): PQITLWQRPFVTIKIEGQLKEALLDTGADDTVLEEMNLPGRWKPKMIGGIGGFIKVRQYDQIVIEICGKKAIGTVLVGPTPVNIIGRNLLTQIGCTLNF
Just the number, please; pIC50 means minus log10 of the concentration in mol/L.

N[C@H](C(=O)Nc1cncc(F)c1CC[C@H]1CN[C@@H]2CCCS(=O)(=O)N1C2)[C@@H](c1ccc(Cl)cc1)c1cc(F)cc(F)c1
10.92

Query compound follows.
Look up pIC50 for this compound: N[C@H](C(=O)Nc1cncc(F)c1CC[C@@H]1CN[C@H](COC(=O)NCC(F)(F)F)CO1)[C@@H](c1ccc(Cl)cc1)c1cc(F)cc(F)c1
9.15

====

# Tested on: Human immunodeficiency virus 1
# Assay Procedure: Antiviral activity against HIV1 infected in GFP expressing human MT4 cells assessed as inhibition of viral replication after 24 hrs in presence of 50% normal human serum
# Assay type: functional, organism-based
# Cond: Human immunodeficiency virus 1, MT4, 24 h
Reported EC50 values are given for each entry in this list.
Supply the numeric figure in nM, leaving out any unit text.

Consider the worked cases shown below.
O=C(CC(c1ccc(F)cc1)c1ccc(F)cc1)Nc1cccc(F)c1CC[C@H]1CNCCN1S(=O)(=O)c1ccccc1
27
C[C@H]1CN(S(=O)(=O)c2ccccc2)[C@@H](CCc2c(F)cccc2NC(=O)CC(c2ccc(F)cc2)c2ccc(F)cc2)CN1
700

Query molecule follows.
Look up EC50 for this molecule: O=C(CC(c1ccc(F)cc1)c1ccc(F)cc1)Nc1cccc(F)c1CC[C@H]1CN[C@@H]2CCCS(=O)(=O)N1C2
21

====

# Test system: Human immunodeficiency virus 1
# Assay Procedure: Antiviral activity against HIV1 infected in GFP expressing human MT4 cells assessed as inhibition of viral replication after 24 hrs in presence of 50% normal human serum
# Type: functional, organism-based
# Cond: Human immunodeficiency virus 1, MT4, 24 h
Measurement Kind: EC50 (nM)
Supply the numeric figure in nM, leaving out any unit text.

Consider the worked cases shown below.
CC(C)CN(C[C@@H](O)[C@H](Cc1ccccc1)NC(=O)O[C@H]1CO[C@H]2OCC[C@H]21)S(=O)(=O)c1ccc(N)cc1
7
C[C@H]1CNC[C@H](CCc2c(F)cccc2NC(=O)CC(c2ccc(F)cc2)c2ccc(F)cc2)N1S(=O)(=O)c1ccccc1
17
C[C@@H]1CN(S(=O)(=O)c2ccccc2)[C@@H](CCc2c(F)cccc2NC(=O)CC(c2ccc(F)cc2)c2ccc(F)cc2)CN1
520

Query molecule follows.
Look up EC50 for this molecule: O=C(CC(c1ccc(F)cc1)c1ccc(F)cc1)Nc1cccc(F)c1CC[C@@H]1CNCCN1S(=O)(=O)c1ccccc1
1200
